- Test system: Hemp Sesbania
- testProtocol: post-emergent herbicidal activity, greenhouse
- Format: in vivo
- conditionSummary: Table II, 4 WAT, 5.6 kg/h
observationType: post-emergent herbicidal activity index

Solved cases (8 shown):
## Input Item: CC(C#N)OP(=O)(O)CNCC(=O)OCc1ccccc1 (centres unmarked) Test system: Hemp Sesbania Read-out: post-emergent herbicidal activity index Value: ?
## Output 1 (25-49% control)

## Input Find post-emergent herbicidal activity index (Hemp Sesbania) for the entry CC(C#N)OP(=O)(O)CNCC(=O)OCCCl (centres unmarked)
## Output 4 (100% control)

## Input Item: CCOC(=O)CNCP(=O)(O)OC(C#N)CC (centres unmarked) Test system: Hemp Sesbania Read-out: post-emergent herbicidal activity index Value: ?
## Output 4 (100% control)

## Input Record CC(C#N)OP(=O)(CNCC#N)OC(C)C#N (centres unmarked) : what is its post-emergent herbicidal activity index with Hemp Sesbania?
## Output 0 (0-24% control)

## Input Form entry - test system: Hemp Sesbania; read-out: post-emergent herbicidal activity index; compound: CCOC(=O)CNCP(=O)(O)OC(C)C#N (centres unmarked)
## Output 3 (75-99% control)

## Input // fetch Hemp Sesbania post-emergent herbicidal activity index for CCOC(=O)CNCP(=O)(OC(C)CC(=O)OCC)OC(C)CC(=O)OCC (centres unmarked)
## Output 0 (0-24% control)

## Input Param readout = post-emergent herbicidal activity index; param system = Hemp Sesbania; param query = CCOC(=O)CNCP(=O)(O)OC(C)C(=O)OC (centres unmarked) ; response: value
## Output 3 (75-99% control)

## Input Report post-emergent herbicidal activity index for CCCCCOC(=O)CNCP(=O)(O)OC(C)C#N (centres unmarked) [Example 6, hemihydrate] tested on Hemp Sesbania.
## Output 4 (100% control)

Could I get post-emergent herbicidal activity index for every one of these entries?
1. CCOCCOC(=O)CNCP(=O)(O)OC(C)C#N (centres unmarked)
2. CCOC(=O)CNCP(=O)(OC(C)C#N)OC(C)C#N (centres unmarked)
3. CCOC(=O)CNCP(=O)(O)OCC(Cl)(Cl)Cl

## Output
1. 1 (25-49% control)
2. 2 (50-74% control)
3. 3 (75-99% control)
